test system: Mus musculus; experiment: Anxiolytic activity in ip dosed male albino CF-1 mouse assessed as inhibition of strychnine-induced lethality; assay type: functional; settings: CF-1, ip
ED50 under 10 mg/kg gets Fulfilled, anything at or over 10 mg/kg gets Not fulfilled.

Example entries and their recorded answers appear below.
>  <Molecule>
Cc1nnc2n1-c1ccc(Cl)cc1C(c1ccccc1)=NC2

>  <Label>
Fulfilled

$$$$
>  <Molecule>
Cc1nnc(CN(C)C)n1-c1ccccc1C(=O)c1ccccc1Cl

>  <Label>
Not fulfilled

$$$$
>  <Molecule>
CN(C)CCn1nc(CN(C)C)n(-c2ccc(Cl)cc2C(=O)c2ccccc2)c1=O

>  <Label>
Not fulfilled

$$$$
>  <Molecule>
Cc1nnc(CN(C)C)n1-c1ccc(Cl)cc1C(=O)c1ccccc1

>  <Label>
Fulfilled

$$$$
>  <Molecule>
NCC(=O)Nc1ccc(Cl)cc1C(=O)c1ccccc1

>  <Label>
Not fulfilled

$$$$

query: Lab note: ED50 threshold 10 mg/kg. Does this molecule come in strictly under it? `Cc1nnc(CN2CCCC2)n1-c1ccc(Cl)cc1C(=O)c1ccccc1`
result: Fulfilled

query: `Cc1nnc(CN2CCOCC2)n1-c1ccc(Cl)cc1C(=O)c1ccccc1` ?
result: Fulfilled

* * *

system: Mus musculus; assay: Anxiolytic activity in ip dosed male albino CF-1 mouse assessed as decrease in dish reflex; type: functional; conditions: Mus musculus, CF-1, ip; read-out: ED50
Parameter: ED50
Don't forget the unit after the value.

>  <Compound>
CNCc1nn(C)c(=O)n1-c1ccc(Cl)cc1C(=O)c1ccccc1.Cl

>  <Parameter>
ED50

>  <Reading>
4 mg/kg

$$$$

query: Would you mind telling me what ED50 value was observed for Cc1nnc(CN)n1-c1ccc(Cl)cc1C(O)c1ccccc1 (stereo not drawn) ?
result: 2.8 mg/kg

query: `CN(C)Cc1nnc(C2CC2)n1-c1ccc(Cl)cc1C(=O)c1ccccc1Cl` ?
result: 1.1 mg/kg

query: `NCC(=O)Nc1ccc(Cl)cc1C(=O)c1ccccc1` ?
result: 5.6 mg/kg

query: `Cc1nnc(CN2CCOCC2)n1-c1ccc(Cl)cc1C(=O)c1ccccc1` ?
result: 1.8 mg/kg

query: `Cc1nnc(CN(C)C)n1-c1ccc(Cl)cc1C(=O)c1ccccc1Cl` ?
result: 0.25 mg/kg

query: `Cc1nc(CN(C)C)n(-c2ccc(Cl)cc2C(=O)c2ccccc2Cl)c1CO` ?
result: 3.5 mg/kg

* * *

test system: Mus musculus; assay: Anxiolytic activity in ip dosed male albino CF-1 mouse assessed as inhibition of thiosemicarbazide -induced lethality; format: functional; conditions: CF-1, ip
ED50 under 1 mg/kg gets 1.0, anything at or over 1 mg/kg gets 0.0.

>  <Molecule>
Cc1nnc(CN2CCCC2)n1-c1ccc(Cl)cc1C(=O)c1ccccc1

>  <Label>
0.0

$$$$
>  <Molecule>
NCC(=O)Nc1ccc(Cl)cc1C(=O)c1ccccc1

>  <Label>
0.0

$$$$
>  <Molecule>
Cc1nc(CN(C)C)n(-c2ccc(Cl)cc2C(=O)c2ccccc2Cl)c1CO

>  <Label>
0.0

$$$$
>  <Molecule>
Cc1nnc(CN2CCCC2)n1-c1ccc(Cl)cc1C(=O)c1ccccc1Cl

>  <Label>
0.0

$$$$
>  <Molecule>
CN(C)CCn1nc(CN(C)C)n(-c2ccc(Cl)cc2C(=O)c2ccccc2)c1=O

>  <Label>
0.0

$$$$

query: Lab note: ED50 threshold 1 mg/kg. Does this compound come in strictly under it? `CN(C)Cc1nnc(C2CC2)n1-c1ccc(Cl)cc1C(=O)c1ccccc1Cl`
result: 1.0

query: `CN(C)Cc1nnc(-c2ccncc2)n1-c1ccc(Cl)cc1C(=O)c1ccccc1Cl` ?
result: 0.0

query: `Cc1nnc(CN(C)C)n1-c1ccc(Cl)cc1C(=O)c1ccccc1Cl` ?
result: 1.0

query: `Cc1nnc2n1-c1ccc(Cl)cc1C(c1ccccc1Cl)=NC2` ?
result: 1.0

query: `CCNCc1nnc(C)n1-c1ccc(Cl)cc1C(=O)c1ccccc1` ?
result: 1.0

* * *

Overview of recorded ED50 for various compounds
test system: Mus musculus; assay: Anxiolytic activity in ip dosed male albino CF-1 mouse assessed as inhibition of thiosemicarbazide -induced lethality; assay type: functional; conditions: CF-1, ip
Don't forget the unit after the value.

>  <Compound>
Cc1nnc(CN(C)C)n1-c1ccc(Cl)cc1C(=O)c1ccccc1

>  <ED50>
0.3 mg/kg

$$$$

query: Would you mind telling me what ED50 value was observed for CN1C(=O)CN=C(c2ccccc2)c2cc(Cl)ccc21 [DIAZEPAM] ?
result: 0.2 mg/kg

query: `CN(C)Cc1nn(CO)c(=O)n1-c1ccc(Cl)cc1C(=O)c1ccccc1Cl` ?
result: 0.23 mg/kg

query: `Cc1nnc(CN(C)C)n1-c1ccccc1C(=O)c1ccccc1Cl` ?
result: 3.6 mg/kg

query: `CNCc1nnc(C)n1-c1ccc(Cl)cc1C(=O)c1ccccc1` ?
result: 0.3 mg/kg

query: Cc1nnc2n1-c1ccc(Cl)cc1C(c1ccccc1)=NC2 [ALPRAZOLAM] ?
result: 0.16 mg/kg

query: `Cc1nnc(CN2CCOCC2)n1-c1ccc(Cl)cc1C(=O)c1ccccc1` ?
result: 0.8 mg/kg

query: `CN(C)Cc1nccn1-c1ccc(Cl)cc1C(=O)c1ccccc1Cl` ?
result: 1.1 mg/kg

query: Cc1nnc(CN)n1-c1ccc(Cl)cc1C(O)c1ccccc1 (stereo not given) ?
result: 1.2 mg/kg

query: `CN(C)Cc1nnc(-c2ccco2)n1-c1ccc(Cl)cc1C(=O)c1ccccc1` ?
result: 8 mg/kg

* * *

tested on: Mus musculus; assay: Anxiolytic activity in ip dosed male albino CF-1 mouse assessed as decrease in dish reflex; type: functional; details: Mus musculus, CF-1, ip; read-out: ED50
ED50 under 1 mg/kg gets Met, anything at or over 1 mg/kg gets Not met.

>  <Molecule>
CN(C)Cc1nnc(-c2ccco2)n1-c1ccc(Cl)cc1C(=O)c1ccccc1

>  <Label>
Not met

$$$$

query: Lab note: ED50 threshold 1 mg/kg. Does this compound come in strictly under it? `Cc1nnc2n1-c1ccc(Cl)cc1C(c1ccccc1)=NC2`
result: Met

query: `Cc1nnc(CN(C)C)n1-c1ccc(Cl)cc1C(=O)c1ccccc1` ?
result: Not met

query: `Cc1nnc2n1-c1ccc(Cl)cc1C(c1ccccc1Cl)=NC2` ?
result: Met

* * *

system: Mus musculus; assay: Anxiolytic activity in ip dosed male albino CF-1 mouse assessed as inhibition of nicotine-induced tonic extensor convulsions; type: functional; conditions: Mus musculus, CF-1, ip; read-out: ED50
Overview of recorded ED50 for various molecules
Expressed in mg/kg, but write only the number.

>  <Molecule>
NCC(=O)Nc1ccc(Cl)cc1C(=O)c1ccccc1

>  <ED50 (mg/kg)>
0.25

$$$$
>  <Molecule>
CN(C)Cc1nccn1-c1ccc(Cl)cc1C(=O)c1ccccc1Cl

>  <ED50 (mg/kg)>
1

$$$$
>  <Molecule>
Cc1nnc2n1-c1ccc(Cl)cc1C(c1ccccc1)=NC2 [ALPRAZOLAM]

>  <ED50 (mg/kg)>
0.02

$$$$

query: Would you mind telling me what ED50 value was observed for `CN(C)Cc1nnc(-c2ccncc2)n1-c1ccc(Cl)cc1C(=O)c1ccccc1Cl` ?
result: 11

query: `Cc1nnc(CN(C)C)n1-c1ccc(Cl)cc1C(=O)c1ccccc1Cl` ?
result: 0.14

query: `CN(C)Cc1nn(CO)c(=O)n1-c1ccc(Cl)cc1C(=O)c1ccccc1Cl` ?
result: 0.13

* * *

test system: Mus musculus; assay: Anxiolytic activity in ip dosed male albino CF-1 mouse assessed as inhibition of strychnine-induced lethality; assay type: functional; settings: CF-1, ip
Parameter: ED50 (mg/kg)
Expressed in mg/kg, but write only the number.

>  <Molecule>
CN(C)Cc1nnc(-c2ccco2)n1-c1ccc(Cl)cc1C(=O)c1ccccc1

>  <Target under test>
Mus musculus

>  <Reading>
45

$$$$
>  <Molecule>
CN(C)Cc1nn(CO)c(=O)n1-c1ccc(Cl)cc1C(=O)c1ccccc1Cl

>  <Target under test>
Mus musculus

>  <Reading>
12.5

$$$$
>  <Molecule>
CNCc1nnc(C)n1-c1ccc(Cl)cc1C(=O)c1ccccc1

>  <Target under test>
Mus musculus

>  <Reading>
3.2

$$$$
>  <Molecule>
Cc1nnc2n1-c1ccc(Cl)cc1C(c1ccccc1Cl)=NC2 [TRIAZOLAM]

>  <Target under test>
Mus musculus

>  <Reading>
0.23

$$$$
>  <Molecule>
CCNCc1nnc(C)n1-c1ccc(Cl)cc1C(=O)c1ccccc1

>  <Target under test>
Mus musculus

>  <Reading>
45

$$$$
>  <Molecule>
Cc1nnc(CN)n1-c1ccc(Cl)cc1C(O)c1ccccc1 (stereo not drawn)

>  <Target under test>
Mus musculus

>  <Reading>
28

$$$$
>  <Molecule>
Cc1nnc(CN(C)C)n1-c1ccc(Cl)cc1C(=O)c1ccccc1Cl

>  <Target under test>
Mus musculus

>  <Reading>
11

$$$$
>  <Molecule>
CN1C(=O)CN=C(c2ccccc2)c2cc(Cl)ccc21 [DIAZEPAM]

>  <Target under test>
Mus musculus

>  <Reading>
3.6

$$$$

query: Write down the reported ED50 of `Cc1nnc(CN2CCCC2)n1-c1ccc(Cl)cc1C(=O)c1ccccc1Cl` , test system: Mus musculus.
result: 1

query: `CN(C)Cc1nnc(C2CC2)n1-c1ccc(Cl)cc1C(=O)c1ccccc1Cl` ?
result: 5

// provenance: ChEMBL document CHEMBL3272213
